Entries and their measured melting point follow.

// solved cases for melting point follow
{"compound": "O=C(O)C=Cc1ccc(C=CC(=O)O)c2ccccc12", "melting point": "350 to 355 °C"}
{"compound": "N#CC(C#N)=C(O)c1ccc(Oc2ccccc2)cc1", "melting point": "160 to 162 °C"}
{"compound": "Cc1nn(C)c(N)c1C(=O)Nc1cccc(Cl)c1", "melting point": "87 to 92 °C"}

Data point: CCCNCC1Cc2cc(F)cc(-c3c(Cl)cccc3Cl)c2O1 (stereo not given) ; melting point = > 250 °C

Looking up CCCC1CCC(C#Cc2ccc(OCC)c(F)c2F)CC1 (stereo not given) , I see its melting point listed as 64 °C
